meta.source: ChEMBL document CHEMBL1157737

biological target: Tyrosinase (Mus musculus); assay: Inhibition of tyrosinase in mouse Melan-a cells by ELISA
Sequence (P11344 whole entry): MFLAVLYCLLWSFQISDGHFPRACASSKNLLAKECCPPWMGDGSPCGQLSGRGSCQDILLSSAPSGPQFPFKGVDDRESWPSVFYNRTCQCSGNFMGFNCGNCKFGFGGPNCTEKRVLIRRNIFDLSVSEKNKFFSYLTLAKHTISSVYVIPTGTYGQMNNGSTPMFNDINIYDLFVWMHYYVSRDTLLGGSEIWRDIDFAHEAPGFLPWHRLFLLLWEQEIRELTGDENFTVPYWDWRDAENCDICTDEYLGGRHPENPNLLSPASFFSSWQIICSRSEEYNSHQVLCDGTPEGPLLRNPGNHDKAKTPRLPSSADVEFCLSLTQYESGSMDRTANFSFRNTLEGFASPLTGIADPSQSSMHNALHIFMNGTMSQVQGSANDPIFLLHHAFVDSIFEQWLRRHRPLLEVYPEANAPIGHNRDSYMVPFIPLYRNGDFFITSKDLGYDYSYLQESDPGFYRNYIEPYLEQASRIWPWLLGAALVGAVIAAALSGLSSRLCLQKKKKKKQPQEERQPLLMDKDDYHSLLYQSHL
pIC50: −log10 of the molar value.
Readout label: pIC50

COc1cc2c(=O)c(-c3ccc(O)cc3)coc2cc1O = < 3.30
O=c1c(-c2ccc(O)c(O)c2)coc2cc(O)ccc12 = 5.28
O=c1c(-c2ccc(O)cc2)coc2cc(O)cc(O)c12 = < 3.30
O=c1c(-c2ccc(O)cc2)coc2cc(O)ccc12 = < 3.30
O=c1c(-c2ccc(O)cc2)coc2c(O)c(O)ccc12 = 4.95
O=c1c(-c2ccc(O)cc2)coc2cc(O)c(O)cc12 = < 3.30
